The values you see were collected from paper PMC6544338.

Would you mind telling me the reported Ka2 of each entry?
Molecular target: immobilized AChE (Electrophorus electricus, UniProt O42275)
Construct: purchased Sigma (St. Louis, MO, USA)
Sequence (O42275 24-633): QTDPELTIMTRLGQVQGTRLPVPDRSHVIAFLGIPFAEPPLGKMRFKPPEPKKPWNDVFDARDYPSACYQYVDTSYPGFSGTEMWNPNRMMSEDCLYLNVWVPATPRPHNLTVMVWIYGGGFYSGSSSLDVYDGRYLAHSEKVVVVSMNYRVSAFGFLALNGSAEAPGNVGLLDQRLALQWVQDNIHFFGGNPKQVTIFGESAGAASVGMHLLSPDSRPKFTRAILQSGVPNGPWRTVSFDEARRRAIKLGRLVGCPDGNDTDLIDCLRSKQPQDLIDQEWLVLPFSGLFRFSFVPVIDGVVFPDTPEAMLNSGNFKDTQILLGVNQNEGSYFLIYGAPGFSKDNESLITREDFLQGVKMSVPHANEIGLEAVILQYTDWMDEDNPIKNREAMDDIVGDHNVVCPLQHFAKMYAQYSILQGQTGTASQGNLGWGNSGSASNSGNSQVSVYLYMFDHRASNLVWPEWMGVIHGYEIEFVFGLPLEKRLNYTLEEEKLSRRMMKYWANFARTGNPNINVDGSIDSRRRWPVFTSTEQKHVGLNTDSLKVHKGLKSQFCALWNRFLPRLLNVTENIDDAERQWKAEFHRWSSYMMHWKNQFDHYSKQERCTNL
Assay: biochemical
Type: binding

Query: Ka2; subject: C[C@@H]1O[C@@H](OC[C@H]2O[C@@H](Oc3c(-c4ccc(O)c(O)c4)oc4cc(O)cc(O)c4c3=O)[C@H](O)[C@@H](O)[C@@H]2O)[C@H](O)[C@H](O)[C@H]1O [Rutin hydrate, rutin hydrate]
0.004468±1.6×10^−4 1/s

Report Ka2 for C[N+](C)(C)CCOC(N)=O [Carbachol, carbachol, reference compound] please.
0.001509±2.6×10^−4 1/s

Please look up its Ka2: "CC(/C=C/C=C(\C)C(=O)O[C@@H]1O[C@H](CO[C@@H]2O[C@H](CO)[C@@H](O)[C@H](O)[C@H]2O)[C@@H](O)[C@H](O)[C@H]1O)=C\C=C\C=C(C)\C=C\C=C(/C)C(=O)O[C@@H]1O[C@H](CO[C@@H]2O[C@H](CO)[C@@H](O)[C@H](O)[C@H]2O)[C@@H](O)[C@H](O)[C@H]1O"
0.003559±9.4×10^−5 1/s

Find the recorded Ka2 belonging to "Oc1cccc(O)c1O" and report it.
0.01979±3.7×10^−4 1/s

Suppose we examine the molecule CC(=O)SCC[N+](C)(C)C.[I-] [ATCI, acetylthiocholine iodide, reference compound] ; what Ka2 value has been reported?
12440 ± 9.6e-05 s⁻¹

I would be grateful if you could share the reported Ka2 for "O=c1c(O)c(-c2ccc(O)c(O)c2)oc2cc(O)cc(O)c12" .
0.006822±3.4×10^−4 1/s

Quick one: Ka2 for O.Oc1cc(O)c2c(c1)O[C@H](c1ccc(O)c(O)c1)[C@@H](O)C2 [Catechin hydrate, catechin hydrate] ?
0.0158±7.1×10^−4 1/s
